Data provenance: paper PMC4226674

ASSAY_PROCEDURE: Nelfinavir plasma pharmacokinetics (HPLC-MS, noncompartmental)
Type: in vivo, human
CONDITION_LABEL: human, in vivo, po, 3750 mg
Protocol: To determine CYP3A4 phenotype, a single 3 mg oral dose of midazolam hydrochloride, a CYP3A4 substrate, was administered at day -2 (2 days prior to commencing nelfinavir) and again at steady state (cycle 1 day 20). […] Plasma concentrations of midazolam and nelfinavir were determined with a validated assay employing high performance liquid chromatography (HPLC) with mass spectrometric detection. […]
TEST_READOUT: AUC(0-t)

>  <RECORD_SMILES>
Cc1c(O)cccc1C(=O)N[C@@H](CSc1ccccc1)[C@H](O)CN1C[C@H]2CCCC[C@H]2C[C@H]1C(=O)NC(C)(C)C

>  <TEST_READOUT>
AUC(0-t)

>  <REPORTED_VALUE>
61500 ng·h/mL

$$$$

====

ASSAY_PROCEDURE: Nelfinavir plasma pharmacokinetics (HPLC-MS, noncompartmental)
Assay type: in vivo, human
CONDITION_LABEL: human, in vivo, po, 1875 mg
Description: To determine CYP3A4 phenotype, a single 3 mg oral dose of midazolam hydrochloride, a CYP3A4 substrate, was administered at day -2 (2 days prior to commencing nelfinavir) and again at steady state (cycle 1 day 20). […] Plasma concentrations of midazolam and nelfinavir were determined with a validated assay employing high performance liquid chromatography (HPLC) with mass spectrometric detection. […]

>  <RECORD_SMILES>
Cc1c(O)cccc1C(=O)N[C@@H](CSc1ccccc1)[C@H](O)CN1C[C@H]2CCCC[C@H]2C[C@H]1C(=O)NC(C)(C)C

>  <AUC(0-t)>
73900 ng·h/mL

$$$$

====

ASSAY_PROCEDURE: Nelfinavir plasma pharmacokinetics (HPLC-MS, noncompartmental)
Assay type: in vivo, human
CONDITION_LABEL: human, in vivo, po, 1250 mg

>  <MOLECULE>
Cc1c(O)cccc1C(=O)N[C@@H](CSc1ccccc1)[C@H](O)CN1C[C@H]2CCCC[C@H]2C[C@H]1C(=O)NC(C)(C)C [nelfinavir, Nelfinavir]

>  <UNIT_STRING>
ng·h/mL

>  <AUC(0-inf)>
24500

$$$$

====

ASSAY_PROCEDURE: Nelfinavir plasma pharmacokinetics (HPLC-MS, noncompartmental)
Type: in vivo, human
CONDITION_LABEL: human, in vivo, po, 1250 mg

>  <RECORD_SMILES>
Cc1c(O)cccc1C(=O)N[C@@H](CSc1ccccc1)[C@H](O)CN1C[C@H]2CCCC[C@H]2C[C@H]1C(=O)NC(C)(C)C

>  <Tmax / h>
3.7

$$$$

====

ASSAY_PROCEDURE: Nelfinavir plasma pharmacokinetics (HPLC-MS, noncompartmental)
Format: in vivo, human
CONDITION_LABEL: human, in vivo; Cycle 1 Day 1, first oral dose 3125 mg, mean, n=10; read-out: AUCinf

>  <COMPOUND>
Cc1c(O)cccc1C(=O)N[C@@H](CSc1ccccc1)[C@H](O)CN1C[C@H]2CCCC[C@H]2C[C@H]1C(=O)NC(C)(C)C [nelfinavir, Nelfinavir]

>  <AUC(0-inf) / µg·h/mL>
140

$$$$

====

ASSAY_PROCEDURE: Nelfinavir plasma pharmacokinetics (HPLC-MS, noncompartmental)
Assay type: in vivo, human
CONDITION_LABEL: human, in vivo, po, 2500 mg

>  <MOLECULE>
Cc1c(O)cccc1C(=O)N[C@@H](CSc1ccccc1)[C@H](O)CN1C[C@H]2CCCC[C@H]2C[C@H]1C(=O)NC(C)(C)C [nelfinavir, Nelfinavir]

>  <AUC(0-inf) (ng·h/mL)>
79400

$$$$
